# METHOD NOTES: Inhibition of recombinant Mycobacterium tuberculosis TMPK using dTMP as substrate measured after 1 min in presence of ATP/pyruvate kinase/lactate dehydrogenase/nucleoside diphosphate kinase by coupled spectrophotometric assay
pKi: −log10 of the molar value.
YES means recorded pKi is 4 or above; NO means it is below 4.

>  <COMPOUND>
Cc1cn(CC2CCN(Cc3ccc(Oc4ccccc4)cc3)C2)c(=O)[nH]c1=O (racemic)

>  <GROUP LABEL>
NO

$$$$

Kindly determine if pKi recorded for Cc1cn([C@@H]2CCCN(Cc3ccc(Oc4ccccc4)cc3)C2)c(=O)[nH]c1=O is above or exactly 4.
NO

Decide: is the reported value of pKi for Cc1cn(C2CCCN(C(=O)c3ccc(Oc4ccccc4)cc3)C2)c(=O)[nH]c1=O (racemic) equal to or greater than 4?
YES

Hi team, for Nc1nc(=O)n([C@H]2C[C@H](O)[C@@H](CO)O2)cc1Br , is the recorded pKi at or above 4?
YES

Evaluate Cc1cn(C2CCCN(C(=O)c3cccc(Oc4ccccc4)c3)C2)c(=O)[nH]c1=O (racemic) : pKi at minimum 4?
YES

Threshold query (pKi >= 4) on Cc1cn([C@@H]2CCN(Cc3cccc(Oc4ccccc4)c3)C2)c(=O)[nH]c1=O
YES

Quick check: does Cc1cn([C@H]2CCN(Cc3cccc(Oc4ccccc4)c3)C2)c(=O)[nH]c1=O have pKi greater than or equal to 4?
YES

State whether the measured pKi reaches 4, counting equality as reaching it, for Cc1cn([C@H]2CCCN(Cc3ccc(Oc4ccccc4)cc3)C2)c(=O)[nH]c1=O
YES

Quick check, pKi >= 4? Cc1cn(C2CCCN(Cc3ccc(Oc4ccccc4)cc3)C2)c(=O)[nH]c1=O (racemic)
YES

Is it the case that Cc1cn(CC2CCCN(Cc3cccc(Oc4ccccc4)c3)C2)c(=O)[nH]c1=O (racemic) has pKi reaching or exceeding 4?
NO
